System: 616215-338-R-J1-PDC complex spheroid viability
Experiment: Anticancer human tumor 616215-338-R-J1-PDC patient-derived colon adenocarcinoma cell line growth inhibition [RAS]
Conditions: curve of first compound; second compound 0.0949 µM
List of IC50 values.

1. CCc1c2c(nc3ccc(O)cc13)-c1cc3c(c(=O)n1C2)COC(=O)[C@]3(O)CC + CCn1c(-c2cc(N3CCN(C)CC3)cnc2C(C)OC)c2c3cc(ccc31)-c1csc(n1)CC(NC(=O)C1CC1C)C(=O)N1CCCC(N1)C(=O)OCC(C)(C)C2
< 0.949 nM
2. CC(C)NCC(C(=O)N1CCN(c2ncnc3c2C(C)CC3O)CC1)c1ccc(Cl)cc1 (centres undefined) + CCn1c(-c2cc(N3CCN(C)CC3)cnc2C(C)OC)c2c3cc(ccc31)-c1csc(n1)CC(NC(=O)C1CC1C)C(=O)N1CCCC(N1)C(=O)OCC(C)(C)C2
< 31.6 nM
3. CC(C)n1nc(-c2ccc3oc(N)nc3c2)c2c(N)ncnc21 + CCn1c(-c2cc(N3CCN(C)CC3)cnc2C(C)OC)c2c3cc(ccc31)-c1csc(n1)CC(NC(=O)C1CC1C)C(=O)N1CCCC(N1)C(=O)OCC(C)(C)C2
< 0.316 nM

Which value of IC50 has been reported for CC(C)n1nc(-c2ccc3oc(N)nc3c2)c2c(N)ncnc21 + CCn1c(-c2cccnc2C(C)OC)c2c3cc(ccc31)N1CCOC(CC(NC(=O)C(C(C)C)N(C)C(=O)C3(F)CCN(C(=O)C#CC(C)(C)N(C)C)CC3)C(=O)N3CCCC(N3)C(=O)OCC(C)(C)C2)C1 in the records?
> 100 nM

Which IC50 reading was recorded for the compound CC(C)NCC(C(=O)N1CCN(c2ncnc3c2C(C)CC3O)CC1)c1ccc(Cl)cc1 (centres undefined) + CCn1c(-c2cccnc2C(C)OC)c2c3cc(ccc31)N1CCOC(CC(NC(=O)C(C(C)C)N(C)C(=O)C3(F)CCN(C(=O)C#CC(C)(C)N(C)C)CC3)C(=O)N3CCCC(N3)C(=O)OCC(C)(C)C2)C1 ?
6150 nM

Requested read-out: IC50. Entry: C[C@@H](NC(=O)c1ncnc(N)c1Cl)c1ncc(C(=O)Nc2cc(C(F)(F)F)c(Cl)cn2)s1 + CCn1c(-c2cccnc2C(C)OC)c2c3cc(ccc31)N1CCOC(CC(NC(=O)C(C(C)C)N(C)C(=O)C3(F)CCN(C(=O)C#CC(C)(C)N(C)C)CC3)C(=O)N3CCCC(N3)C(=O)OCC(C)(C)C2)C1
> 10000 nM

====

Measured viability, T/C by item
System: 616215-338-R-J1-PDC complex spheroid viability
Experiment: Anticancer human tumor 616215-338-R-J1-PDC cell line growth inhibition [RAS];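 also: spheroids exposed to agents for seven days before viability readout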;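 as to viability, T/C: 100% = DMSO vehicle control viability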
Details: second compound 0.03 µM; first compound 0.01 µM; stronger effect = lower value
The figure you give is taken to be in %; do not add the unit.

1) Nc1ccn(C2OC(CO)C(O)C2(F)F)c(=O)n1 (centres undefined) + CCn1c(-c2cc(N3CCN(C)CC3)cnc2C(C)OC)c2c3cc(ccc31)-c1csc(n1)CC(NC(=O)C1CC1C)C(=O)N1CCCC(N1)C(=O)OCC(C)(C)C2
25.8
2) CC(C)n1nc(-c2ccc3oc(N)nc3c2)c2c(N)ncnc21 + CCn1c(-c2cccnc2C(C)OC)c2c3cc(ccc31)N1CCOC(CC(NC(=O)C(C(C)C)N(C)C(=O)C3(F)CCN(C(=O)C#CC(C)(C)N(C)C)CC3)C(=O)N3CCCC(N3)C(=O)OCC(C)(C)C2)C1
106
3) C=CC(=O)Nc1cc(Nc2nccc(-c3cn(C)c4ccccc34)n2)c(OC)cc1N(C)CCN(C)C + CCn1c(-c2cc(N3CCN(C)CC3)cnc2C(C)OC)c2c3cc(ccc31)-c1csc(n1)CC(NC(=O)C1CC1C)C(=O)N1CCCC(N1)C(=O)OCC(C)(C)C2
48.8

Request the reported viability, T/C associated with Nc1ccn(C2OC(CO)C(O)C2(F)F)c(=O)n1 (centres undefined) + CCn1c(-c2cccnc2C(C)OC)c2c3cc(ccc31)N1CCOC(CC(NC(=O)C(C(C)C)N(C)C(=O)C3(F)CCN(C(=O)C#CC(C)(C)N(C)C)CC3)C(=O)N3CCCC(N3)C(=O)OCC(C)(C)C2)C1
53.9
